Origin of measurements: PubChem BioAssay

Parameter: z-score. Scope: all listed entries.
# EXPERIMENT_SUMMARY: compound effects on differentiated 3T3-L1 adipocyte viability – cell-based, 3T3-L1 adipocytes, calcein-AM fluorescence, 48 h, basal, profiling panel (AID 1163); also: test concentration not given here
# CONDITION_CONTEXT: 3T3-L1 adipocytes viability, higher = more signal

// solved cases for z-score follow
COMPOUND	z-score
COCCCNC(=O)[C@@]1(Sc2ccc(C)cc2)CC(=O)N(Cc2ccccc2)[C@@H]1c1ccc(CO)cc1	0.0417
O=C1C2C=CC(C(O)c3ccc(-c4ccccc4)s3)N(Nc3ccccc3F)C2C(=O)N1c1ccccc1 (configuration not stated)	-0.0797
COc1ccc([Si](C)(C)[C@H]2[C@H](CC(=O)N3CCC[C@H]3CO)O[C@@]3(C(=O)N(Cc4cccc(N5CCC5=O)c4)c4ccccc43)[C@@H]2C)cc1	1.57
Oc1ccc2cc[n+](Cc3cccc(OC(F)(F)F)c3)cc2c1	0.128

Prompt: Data request, read-out z-score, for CCCCCCCCCCC(O)C1C=CC2C(=O)N(c3ccccc3)C(=O)C2N1Nc1ccc([N+](=O)[O-])cc1 (configuration not stated)
Completion: -0.581

Prompt: # lookup: z-score of CC(=O)N1Cc2ccccc2C[C@@]2(N=C(c3ccc(OCCCO)cc3)O[C@H]2c2ccccc2)C1=O
Completion: 0.609

Prompt: Field request: z-score | item: O=C1O[C@@H](c2ccccc2)[C@@H](c2ccccc2)N2[C@@H](c3ccc(O)cc3)[C@]3(C(=O)Nc4ccc(C#CCCO)cc43)[C@@H](C(=O)N3CCCCCCC3)[C@H]12
Completion: 0.93
